The reported measurements were obtained from patent US4760136A.

- procedure-text: Acute toxicity, intravenous (once), ddY mice
- Type: in vivo
- settings: mouse, in vivo, iv, formulated per Preparation Example
Quick list: LD50 per entry.

compound	LD50
COC1C(O)C(C)OC(OC2C(Oc3cccc4c(OC(=O)C(Br)C(C)C)c5c(=O)oc6ccc(C)c7c(=O)oc(c34)c5c67)OC(C)C3OC(C)(C)OC32)C1O (centres unmarked) [Compound No. 172]	≥ 80 mg/kg
COC1C(O)C(C)OC(OC2C(Oc3cccc4c(OC(=O)C5CCCCC5NC(=O)OCc5ccccc5)c5c(=O)oc6ccc(C)c7c(=O)oc(c34)c5c67)OC(C)C3OC(c4ccccc4)OC32)C1O (centres unmarked) [Compound No. 62]	≥ 40 mg/kg
CO[C@H]1[C@@H](O)[C@@H](C)O[C@H](O[C@H]2[C@H](Oc3cccc4c(OC(=O)COc5ccccc5)c5c(=O)oc6ccc(C)c7c(=O)oc(c34)c5c67)O[C@H](C)[C@@H]3OC(C)(C)O[C@@H]32)[C@@H]1O [compound 205]	≥ 80 mg/kg
COC1C(O)C(C)OC(OC2C(Oc3cccc4c(OC(=O)C5CC5)c5c(=O)oc6ccc(C)c7c(=O)oc(c34)c5c67)OC(C)C3OC(c4ccsc4)OC32)C1O (centres unmarked) [Compound No. 155]	≥ 40 mg/kg
COC1C(O)C(C)OC(OC2C(Oc3cccc4c(OC(=O)CCNC(=O)OCc5ccccc5)c5c(=O)oc6ccc(C)c7c(=O)oc(c34)c5c67)OC(C)C3OC(c4ccccc4)OC32)C1O (centres unmarked) [compound 72]	≥ 40 mg/kg

---

- Tested on: ddY mice
- procedure-text: Acute toxicity, intravenous (once), ddY mice
- Type: in vivo
- settings: formulated per Preparation Example
- Excerpt: In Table 7 are shown acute toxicity values (LD50, mg/kg) in ddY mice in the case of intravenously administering (once) each of the compounds of this invention in the form of preparations shown in the Preparation Examples shown in Table 7.
measure: LD50

compound	observed-result
COC1C(O)C(C)OC(OC2C(Oc3cccc4c(OC(=O)CCNC(C)=O)c5c(=O)oc6ccc(C)c7c(=O)oc(c34)c5c67)OC(C)C3OC(c4ccccc4)OC32)C1O (stereo not shown)	≥ 80 mg/kg
COC1C(O)C(C)OC(OC2C(Oc3cccc4c(OC(=O)C5CC5)c5c(=O)oc6ccc(C)c7c(=O)oc(c34)c5c67)OC(C)C3OC(c4ccccc4)OC32)C1O (stereo not shown)	≥ 80 mg/kg
COC1C(O)C(C)OC(OC2C(Oc3cccc4c(OC(=O)CCNC(=O)c5ccccc5)c5c(=O)oc6ccc(C)c7c(=O)oc(c34)c5c67)OC(C)C3OC(c4ccc(Br)cc4)OC32)C1O (stereo not shown)	≥ 80 mg/kg
COC1C(O)C(C)OC(OC2C(Oc3cccc4c(OC(=O)CCNC=O)c5c(=O)oc6ccc(C)c7c(=O)oc(c34)c5c67)OC(C)C3OC(c4ccccc4)OC32)C1O (stereo not shown)	≥ 100 mg/kg
COC1C(O)C(C)OC(OC2C(Oc3cccc4c(OC(=O)CCN)c5c(=O)oc6ccc(C)c7c(=O)oc(c34)c5c67)OC(C)C3OC(c4ccccc4)OC32)C1O (stereo not shown)	≥ 40 mg/kg
COC1C(O)C(C)OC(OC2C(Oc3cccc4c(OC(=O)C5CCCCC5NC(=O)C(F)(F)F)c5c(=O)oc6ccc(C)c7c(=O)oc(c34)c5c67)OC(C)C3OC(c4ccccc4)OC32)C1O (single isomer, unassigned)	≥ 40 mg/kg
COC1C(O)C(C)OC(OC2C(Oc3cccc4c(OC(=O)CCCNC(=O)C(F)(F)F)c5c(=O)oc6ccc(C)c7c(=O)oc(c34)c5c67)OC(C)C3OC(c4ccc(F)cc4)OC32)C1O (stereo not shown)	≥ 80 mg/kg
COC1C(O)C(C)OC(OC2C(Oc3cccc4c(OC(=O)C5CCCCC5NC(=O)C(F)(F)F)c5c(=O)oc6ccc(C)c7c(=O)oc(c34)c5c67)OC(C)C3OC(c4cccc(F)c4)OC32)C1O (single isomer, unassigned)	≥ 30 mg/kg
COC1C(O)C(C)OC(OC2C(Oc3cccc4c(OC(=O)CCCCCNC(=O)OCc5ccccc5)c5c(=O)oc6ccc(C)c7c(=O)oc(c34)c5c67)OC(C)C3OC(c4ccccc4)OC32)C1O (stereo not shown)	≥ 60 mg/kg
COC1C(O)C(C)OC(OC2C(Oc3cccc4c(OC(=O)C(C)CNC(=O)C(F)(F)F)c5c(=O)oc6ccc(C)c7c(=O)oc(c34)c5c67)OC(C)C3OC(c4cccc(F)c4)OC32)C1O (stereo not shown) [Compound No. 37]	≥ 30 mg/kg
